Where these numbers come from: patent US8906904B2

Experiment: Assessment of solubility (McIlvaine buffers, 24 h shake, UPLC-UV)
Type: physicochemical
Details: pH 2.2, aqueous buffer, kinetic from dmso stock
quantity.kind: solubility at 24 h (µg/mL)

[
  {
    "compound": "CCOc1c(C(=O)O)cnn1-c1cccc(-c2cccc(C)c2OCc2ccc3c(c2)CCN(C2CCOC2C)C3)n1 (stereo not drawn)",
    "solubility at 24 h, µg/mL": 94
  },
  {
    "compound": "Cc1cccc(-c2cccc(-n3ncc(C(=O)O)c3OC(C)C)n2)c1OCc1ccc2c(c1)CCN(C1CCOC1)C2 (stereo not drawn)",
    "solubility at 24 h, µg/mL": 96
  },
  {
    "compound": "CCOc1c(C(=O)O)cnn1-c1cccc(-c2cccc(Cl)c2OCc2ccc3c(c2)CCN(C2CCOCC2)C3)n1",
    "solubility at 24 h, µg/mL": 100
  },
  {
    "compound": "COc1c(C(=O)O)cnn1-c1cccc(-c2cccc(C)c2OCc2ccc3c(c2)CCN(C(C)C)C3)n1",
    "solubility at 24 h, µg/mL": 100
  },
  {
    "compound": "CCOc1c(C(=O)O)cnn1-c1cccc(-c2cccc(C)c2OCc2ccc3c(c2C)CCN(CC2CCOCC2)C3)n1",
    "solubility at 24 h, µg/mL": 110
  }
]

(1) CCOc1c(C(=O)O)cnn1-c1cccc(-c2cccc(C)c2OCc2ccc3c(c2)CCN([C@H]2CCOC2)C3)n1
(2) COc1c(C(=O)O)cnn1-c1cccc(-c2cccc(C)c2OCc2ccc3c(c2)CCN(CC2CCC2)C3)n1
From the recorded data, which exceeds the other in solubility at 24 h: 1 or 2 ? Please identify the chosen entry by its label.
1

(a) COc1c(C(=O)O)cnn1-c1cccc(-c2cccc(C)c2OCc2cc(F)c3c(c2)CCN([C@H]2CCOC2)C3)n1
(b) COc1c(C(=O)O)cnn1-c1cccc(-c2ccc(C)cc2OCc2ccc3c(c2)CCN(C2CCOCC2)C3)n1
Looking at recorded values for solubility at 24 h, does a or b come in lower? Please identify the chosen entry by its label.
a
(a: 100 µg/mL, b: 150 µg/mL)
